Would you kindly list normalized growth for each of these compounds?
Experiment Summary: chemical genetic growth profiling, strain panel (AID 1159580);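 further: tested at 20 µM; growth read once vehicle control cultures reached saturation at 30 °C; 1 = growth at the plate median or of vehicle wells; lower values mean less growth of the strain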
Cond: S. cerevisiae deletion strains, growth OD, locus YDL035C, strain GPR1, hits give low values
Hit rate of the full screen: of about 5,500 compounds, about 2,000 (36%) were called active. Not shown: some 18% with an inconclusive outcome. The list shows a part of the results.
Please reply with the value in numeric form only.

Prompt: Consider the compound shown here: Nc1ccncc1 What is its recorded normalized growth?
Response: 1.03

Prompt: Consider the compound shown here: CCOC(=O)[C@H](CCc1ccccc1)N[C@@H](C)C(=O)N1Cc2ccccc2C[C@H]1C(=O)O What is its recorded normalized growth?
Response: 1.02

Prompt: Consider the compound shown here: Nc1cc(-c2ccncc2)c[nH]c1=O What is its recorded normalized growth?
Response: 0.907

Prompt: Consider the compound shown here: CCCCCC1C(=O)CCC1CC(=O)OC (centres undefined) What is its recorded normalized growth?
Response: 0.974
